molecular target: Drosophila Sestrin (Drosophila melanogaster); format: binding; details: pH 7.4, on ice, 1 h; 150 mM KCl, 2.5 mM MgCl2, 0.1% Triton; Kd derived from IC50
Sequence (A0A0B4LGG4 1-467): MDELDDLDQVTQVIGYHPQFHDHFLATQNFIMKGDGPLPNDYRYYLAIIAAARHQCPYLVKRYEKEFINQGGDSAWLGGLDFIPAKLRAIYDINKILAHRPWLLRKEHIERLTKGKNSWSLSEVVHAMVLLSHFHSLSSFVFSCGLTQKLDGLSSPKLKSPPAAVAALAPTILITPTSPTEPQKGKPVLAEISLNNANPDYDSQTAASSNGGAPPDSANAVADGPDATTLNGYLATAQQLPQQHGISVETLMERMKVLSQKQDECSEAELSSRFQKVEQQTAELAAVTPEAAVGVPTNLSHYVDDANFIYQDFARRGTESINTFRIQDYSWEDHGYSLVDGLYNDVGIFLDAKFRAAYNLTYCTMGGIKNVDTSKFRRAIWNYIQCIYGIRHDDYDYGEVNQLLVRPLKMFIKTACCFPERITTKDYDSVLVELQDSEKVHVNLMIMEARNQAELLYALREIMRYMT
readout_kind: Kd

Ask | Using known records, supply Kd for CC(C)C[C@H](N)C(=O)O
Reply | ~100 µM
